// provenance: the supplement of paper PMC13207355

Can you tell me surviving fraction for the items I'm about to list?
tested on: E21 (patient-derived glioblastoma stem cells of mesenchymal subtype); experiment: surviving fraction (nuclei count normalised to DMSO); higher = more cells surviving (less toxic); settings: 111.1 nM; exposure time: 72 h
Counter-ions that a name gives are not always drawn.

Please report the measured surviving fraction for `NC(=O)c1cccc2cn(-c3ccc([C@@H]4CCCNC4)cc3)nc12` tested on E21.
0.923

Please report the measured surviving fraction for `Nc1nc2n[nH]nc2c(=O)[nH]1` tested on E21.
0.68

Please report the measured surviving fraction for C[C@@H]1C[C@@H]([C@H](O)CC2CC(=O)NC(=O)C2)C(=O)[C@@H](C)C1 [Cycloheximide] tested on E21.
0.518

Please report the measured surviving fraction for Clc1ccc(C(Cn2ccnc2)OCc2ccsc2Cl)c(Cl)c1 (centres undefined) tested on E21.
1.03

Please report the measured surviving fraction for `CN1C(=O)OC(C)(C)C1=O` tested on E21.
1.05

Please report the measured surviving fraction for C[C@@H](O[C@H]1OCCN(Cc2n[nH]c(=O)[nH]2)[C@H]1c1ccc(F)cc1)c1cc(C(F)(F)F)cc(C(F)(F)F)c1 [Aprepitant] tested on E21.
1.02

Please report the measured surviving fraction for N=C(N)NCc1cccc(I)c1 [Iobenguane sulfate] tested on E21.
0.921

Please report the measured surviving fraction for Clc1ccc(CSC(Cn2ccnc2)c2ccc(Cl)cc2Cl)cc1 (centres undefined) [Sulconazole nitrate] tested on E21.
0.956

Please report the measured surviving fraction for Nc1ncn(C2OC(CO)C(O)C2O)c(=O)n1 (centres undefined) tested on E21.
0.892

Please report the measured surviving fraction for `Nc1ccc(-c2ccc3ncc4ccc(=O)n(-c5cccc(C(F)(F)F)c5)c4c3c2)cn1` tested on E21.
0.595

Please report the measured surviving fraction for `O=C(C1CC1)N1CC[C@@H](Cc2n[nH]c(=O)n2-c2ccc(-c3ccc4occc4c3)cc2)C1` tested on E21.
0.777

Please report the measured surviving fraction for COc1ccc2[nH]c([S+]([O-])Cc3ncc(C)c(OC)c3C)nc2c1 (centres undefined) tested on E21.
0.96

Please report the measured surviving fraction for CN(C)CCN(Cc1ccc(Cl)cc1)c1ccccn1 [Chloropyramine hydrochloride] tested on E21.
0.922

Please report the measured surviving fraction for `C[C@H]1Oc2cc(cnc2N)-c2c(nn(C)c2C#N)CN(C)C(=O)c2ccc(F)cc21` tested on E21.
0.918

Please report the measured surviving fraction for CCOC(=O)OC(C)OC1=C(C(=O)Nc2ccccn2)N(C)S(=O)(=O)c2ccccc21 (centres undefined) tested on E21.
0.847

Please report the measured surviving fraction for `C=C(C)[C@H]1Cc2c(ccc3c2O[C@@H]2COc4cc(OC)c(OC)cc4[C@@H]2C3=O)O1` tested on E21.
0.905

Please report the measured surviving fraction for `O=C(CCBr)N1CCN(C(=O)CCBr)CC1` tested on E21.
0.966

Please report the measured surviving fraction for CC(C)NCC(O)COc1cccc2ccccc12 (centres undefined) [Propranolol hydrochloride] tested on E21.
1.01

Please report the measured surviving fraction for `COc1cc2ncnc(Nc3cccc(Br)c3)c2cc1OC` tested on E21.
0.867

* * *

tested on: E21; assay: phenotypic distance (Euclidean, principal components) from DMSO controls (arbitrary units); higher = stronger morphological change; conditions: 12.3 nM; exposure time: 72 h
Structures can show the parent of a compound that is named as a salt.
ASSAY READOUT: phenotypic distance
The reply should be a number, written without any unit.

Return the recorded phenotypic distance value; entry: `Nc1ncnc2c1c(-c1ccc(Oc3ccccc3)cc1)cn2C1CCCC1`
0.6

Return the recorded phenotypic distance value; entry: COc1c(N2CCNC(C)C2)c(F)cc2c(=O)c(C(=O)O)cn(C3CC3)c12 (stereo not given)
0.609

Return the recorded phenotypic distance value; entry: CCCCC1C(=O)N(c2ccccc2)N(c2ccc(O)cc2)C1=O (stereo not given)
0.677

Return the recorded phenotypic distance value; entry: CCCCCCCCCCCCCC(=O)O[C@@H]1[C@@H](C)[C@@]2(O)[C@@H](C=C(CO)C[C@]3(O)C(=O)C(C)=C[C@@H]23)[C@@H]2C(C)(C)[C@]12OC(C)=O [Phorbol 12-myristate 13-acetate]
2.57

Return the recorded phenotypic distance value; entry: COc1cc([C@@H]2c3cc4c(cc3[C@@H](O[C@@H]3O[C@@H]5CO[C@@H](c6cccs6)O[C@H]5[C@H](O)[C@H]3O)[C@H]3COC(=O)[C@H]23)OCO4)cc(OC)c1O [Teniposide]
2.77

Return the recorded phenotypic distance value; entry: CNCCCC12CCC(c3ccccc31)c1ccccc12 [Maprotiline hydrochloride]
1.04

Return the recorded phenotypic distance value; entry: CN1[C@@H]2CC[C@H]1CC(OC(=O)c1c[nH]c3ccccc13)C2 (stereo not given in full) [3-Tropanyl-indole-3-carboxylate hydrochloride]
0.871

Return the recorded phenotypic distance value; entry: NC(=O)c1ccccc1 [Benzamide]
0.521

Return the recorded phenotypic distance value; entry: CC(C)(Oc1ccc(C2CC2(Cl)Cl)cc1)C(=O)O (stereo not given) [Ciprofibrate]
1.12

Return the recorded phenotypic distance value; entry: `OC[C@H]1O[C@@H](Oc2ccc(O)cc2)[C@H](O)[C@@H](O)[C@@H]1O`
1.06

Return the recorded phenotypic distance value; entry: `C[C@]12CC[C@H](O)C[C@H]1CC[C@@H]1[C@@H]2C[C@@H](O)[C@]2(C)[C@@H](C3=CC(=O)OC3)CC[C@]12O`
0.815

Return the recorded phenotypic distance value; entry: `CC(C)C[C@@H](C(=O)N[C@H](C(=O)OC1CCCC1)c1ccccc1)[C@H](O)C(=O)NO`
0.918

Return the recorded phenotypic distance value; entry: `Nc1ccc(-c2ccc3ncc4ccc(=O)n(-c5cccc(C(F)(F)F)c5)c4c3c2)cn1`
2.07

Return the recorded phenotypic distance value; entry: Clc1ccc(COC(Cn2ccnc2)c2ccc(Cl)cc2Cl)c(Cl)c1 (stereo not given)
0.477

Return the recorded phenotypic distance value; entry: N=C(N)c1ccc(-c2ccc(-c3ccc(C(=N)N)cc3)o2)cc1 [Furamidine dihydrochloride]
0.291

Return the recorded phenotypic distance value; entry: `CN[C@@H](C)C(=O)N[C@H](C(=O)N1CCC[C@H]1C(=O)N[C@H]1c2ccccc2C[C@H]1OCC#CC#CCO[C@@H]1Cc2ccccc2[C@@H]1NC(=O)[C@@H]1CCCN1C(=O)[C@@H](NC(=O)[C@H](C)NC)C1CCCCC1)C1CCCCC1`
1.03

Return the recorded phenotypic distance value; entry: `COc1cc2c(cc1O)CC[C@@H]1[C@@H]2CC[C@]2(C)[C@@H](O)CC[C@@H]12`
1.01

Return the recorded phenotypic distance value; entry: CC1=C(/C=C/C(C)=C/C=C/C(C)=C/C(=O)Nc2ccc(O)cc2)C(C)(C)CCC1 [Retinoic acid p-hydroxyanilide]
0.993

Return the recorded phenotypic distance value; entry: `OC[C@H]1NC[C@H](O)[C@@H](O)[C@@H]1O`
0.361

Return the recorded phenotypic distance value; entry: CC(NCCC(c1ccccc1)c1ccccc1)c1ccccc1 (stereo not given) [Fendiline hydrochloride]
0.709

Return the recorded phenotypic distance value; entry: `O=C(Oc1cccc2cccnc12)c1ccccc1`
0.851

Return the recorded phenotypic distance value; entry: COC(=O)C1=C(C)NC(C)=C(C(=O)OCC(C)C)C1c1ccccc1[N+](=O)[O-] (stereo not given)
0.907

Return the recorded phenotypic distance value; entry: `COc1cc(/C=C/C(=O)N2CCC=CC2=O)cc(OC)c1OC`
0.626

Return the recorded phenotypic distance value; entry: `CN(c1nccc(=O)[nH]1)C1CCN(c2nc3ccccc3n2Cc2ccc(F)cc2)CC1`
0.468

Return the recorded phenotypic distance value; entry: `C#C[C@]1(O)CC[C@H]2[C@@H]3CCC4=CCCC[C@@H]4[C@H]3CC[C@@]21C`
0.584

Return the recorded phenotypic distance value; entry: CC(C)C(=O)OCC(=O)[C@@]12O[C@H](C3CCCCC3)O[C@@H]1C[C@H]1[C@@H]3CCC4=CC(=O)C=C[C@]4(C)[C@H]3[C@@H](O)C[C@@]12C [Ciclesonide]
2.04

Return the recorded phenotypic distance value; entry: `C/C=C1\NC(=O)[C@H]2CSSCC/C=C/[C@H](CC(=O)N[C@H](C(C)C)C(=O)N2)OC(=O)[C@H](C(C)C)NC1=O`
7.55

Return the recorded phenotypic distance value; entry: OCCN1CCN(CCCN2c3ccccc3Sc3ccc(C(F)(F)F)cc32)CC1 [Fluphenazine dihydrochloride]
0.421

Return the recorded phenotypic distance value; entry: `COc1cc2c(c(OC)c1OC)-c1ccc(OC)c(=O)cc1[C@@H](NC(C)=O)CC2`
5.88

Return the recorded phenotypic distance value; entry: `CN1CCC(NC(=O)c2cc(-c3c(O)cc(O)cc3Oc3ccc([N+](=O)[O-])cc3)on2)CC1`
0.626

* * *

system: E34 (patient-derived glioblastoma stem cells of proneural subtype); test: surviving fraction (nuclei count normalised to DMSO); higher = more cells surviving (less toxic); details: 3000 nM; exposure time: 72 h
Where a name gives a salt, the structure may show the parent alone.
Consider the reported surviving fraction of an entry and match it to a band in low class = under 0.9, middle class = from 0.9 up to 1, high class = 1 and over

Which category does the recorded surviving fraction put `Cc1cccn2c(=O)c(-c3nnn[nH]3)cnc12` in?
high class

Which category does the recorded surviving fraction put `COC(=O)Nc1nc2cc(C(=O)c3ccc(F)cc3)ccc2[nH]1` in?
low class

Which category does the recorded surviving fraction put CC1(C)S[C@@H]2[C@H](NC(=O)Cc3ccccc3)C(=O)N2[C@H]1C(=O)O [Benzylpenicillin sodium] in?
low class

Which category does the recorded surviving fraction put `COc1ccc([C@@H]2CC(=O)c3c(O)cc(O[C@@H]4O[C@H](CO[C@@H]5O[C@@H](C)[C@H](O)[C@@H](O)[C@H]5O)[C@@H](O)[C@H](O)[C@H]4O)cc3O2)cc1O` in?
high class

Which category does the recorded surviving fraction put `Cc1ccc2c(c1)C1(CCN(CCc3nc(-c4ccccc4)oc3C)CC1)OC(=O)N2` in?
high class

Which category does the recorded surviving fraction put COc1cccc2c1C(=O)c1c(O)c3c(c(O)c1C2=O)C[C@@](O)(C(C)=O)C[C@@H]3O[C@H]1C[C@H](N)[C@H](O)[C@H](C)O1 [Daunorubicin hydrochloride] in?
low class

Which category does the recorded surviving fraction put `COc1nc(C)nc(Cl)c1NC1=NCCN1` in?
low class

Which category does the recorded surviving fraction put `CC(C)C[C@H](NC(=O)[C@H](CCc1ccccc1)NC(=O)CN1CCOCC1)C(=O)N[C@@H](Cc1ccccc1)C(=O)N[C@@H](CC(C)C)C(=O)[C@@]1(C)CO1` in?
low class

Which category does the recorded surviving fraction put COc1c(N2CCNC(C)C2)c(F)cc2c(=O)c(C(=O)O)cn(C3CC3)c12 (stereo not given) in?
middle class

Which category does the recorded surviving fraction put Cc1ncc(CO)c(CO)c1O [Pyridoxine hydrochloride] in?
high class

Which category does the recorded surviving fraction put C[C@@H](O[C@H]1OCCN(Cc2n[nH]c(=O)[nH]2)[C@H]1c1ccc(F)cc1)c1cc(C(F)(F)F)cc(C(F)(F)F)c1 [Aprepitant] in?
middle class
